# protocol_description: Clinical plasma PK in healthy volunteers after oral dosing (observed)
# Format: in vivo
# details: male, human, oral, 60 mg, multiple dosing (60 mg once daily, 7 days)/last dosing
outcome_measure: Cmax (ng/mL)
Answers are plain numbers, in ng/mL.

Entry CCCCC1=CCC[C@@]2(C)CC[C@@H]3C[C@]12OC3(C)C , Cmax reported as 32

----------
# protocol_description: Clinical plasma PK in healthy volunteers after oral dosing (observed)
# Assay type: in vivo
# details: male, human, oral, 60 mg, multiple dosing (60 mg once daily, 7 days)/last dosing, read-out: AUC0-t Observed
outcome_measure: AUC(0-t) (ng·h/mL)
Give bare numbers, in ng·h/mL.

Entry CCCCC1=CCC[C@@]2(C)CC[C@@H]3C[C@]12OC3(C)C , AUC(0-t) reported as 163
